Biological target: T1, CaBdf1 BD1 (GST-tagged, wild-type) (Candida albicans (strain SC5314 / ATCC …, UniProt Q5A4W8))
T1 chain: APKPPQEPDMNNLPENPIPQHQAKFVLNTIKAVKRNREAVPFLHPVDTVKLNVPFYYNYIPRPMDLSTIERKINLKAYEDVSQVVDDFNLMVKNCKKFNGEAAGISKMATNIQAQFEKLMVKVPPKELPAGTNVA
Experiment: histone peptide array (Active Motif MODified), 1 uM GST-tagged bromodomain, anti-GST detection, normalized mean intensity
Square brackets hold non-standard residues; d marks the D form. Ends that are not written are not given here. Arg(Me2a) = CN(C)C(=N)NCCC[C@H](N)C(=O)O; Lys(Me3) = C[N+](C)(C)CCCC[C@H](N)C(=O)O; Arg(Me2s) = CN=C(NC)NCCC[C@H](N)C(=O)O; pS = N[C@@H](COP(=O)(O)O)C(=O)O; Lys(Me) = CNCCCC[C@H](N)C(=O)O
quantity measured: binding score
Would you mind answering with just the numeric figure?

Answered examples (2):
A[Arg(Me2s)]T[Lys(Me3)]QTA[Arg(Me2a)][Lys(Me3)]STGGKAPRKQ    0.00363
ARTKQTARKSTGGKAPRKQ (A R T Kme1 Q T A Rme2s Kme2 S T G G K A P R K Q)    0.00471

Query binder follows.
Asked: Which binding score reading was recorded for the binder "ARTKQTA[Arg(Me2s)][Lys(Me)][pS]TGGKAPRKQ" ?
Given back: 0.00508
